Cited source for all entries: patent US20240002497A1

Target: T1, huNav1.7α + β1-β2-β3 (human, UniProt Q15858 1-1988; A5A6L6 19-218; O60939 30-215; Q2KI11 23-215)
T1 construct: Cell line (CHO FlpIn, HEK FlpIn, transient HEK293T) is named under assay; also called huNav1.7-beta1-beta2-beta3; human Nav1.7α with Navβ1, Navβ2 and Navβ3
Assay: binding FACS, CHO FlpIn cells
pEC50: −log10 of the molar value.
attribute measured: pEC50

binder	pEC50
F010301886 (VHH, N58Q vs F0103464B09 (Kabat)) VHH: EVQLVESGGGLVQPGGSLRLSCATTSRAFIRDVFTGWYRRVPGKERELVARIYNGGNTQYADFAKGRFSISRDNAKKMVTLRMSNLKPEDTGVYYCLFSGTINTGREYRSGDYWGQGTLVTVSS	8.37
F010302345 (VHH) VHH: EVQLVESGGGVVQPGGSLRLSCAASHRQFIRDVFTGWYRQAPGKQRELVARIYEGGNTQYADSAKGRFTISRDNAKKTVYLQMNSLRPEDTALYYCLFSGTISTGREYRSGDYWGQGTLVTVSS	8.31
F010302356 (VHH) VHH: EVQLVESGGGVVQPGGSLRLSCAASHRAFIRDLFTGWYRRAPGKQRELVARIYESGNTNYADSVKGRFTISRDNAKKTVYLQMNSLRPEDTALYYCLFSGTISTGREYRSGDYWGQGTLVTVSS	8.28
